Data provenance: paper PMC5564600

molecular target: panel of 442 kinases (Homo sapiens, UniProt Q6DT37); construct: purchased Ambit Biosciences (scanMAXX KINOMEscan); assay: biochemical; assay type: binding; conditions: DMPK2; 1 µM; read-out: % of control at 1 µM
Sequence (Q6DT37 whole entry): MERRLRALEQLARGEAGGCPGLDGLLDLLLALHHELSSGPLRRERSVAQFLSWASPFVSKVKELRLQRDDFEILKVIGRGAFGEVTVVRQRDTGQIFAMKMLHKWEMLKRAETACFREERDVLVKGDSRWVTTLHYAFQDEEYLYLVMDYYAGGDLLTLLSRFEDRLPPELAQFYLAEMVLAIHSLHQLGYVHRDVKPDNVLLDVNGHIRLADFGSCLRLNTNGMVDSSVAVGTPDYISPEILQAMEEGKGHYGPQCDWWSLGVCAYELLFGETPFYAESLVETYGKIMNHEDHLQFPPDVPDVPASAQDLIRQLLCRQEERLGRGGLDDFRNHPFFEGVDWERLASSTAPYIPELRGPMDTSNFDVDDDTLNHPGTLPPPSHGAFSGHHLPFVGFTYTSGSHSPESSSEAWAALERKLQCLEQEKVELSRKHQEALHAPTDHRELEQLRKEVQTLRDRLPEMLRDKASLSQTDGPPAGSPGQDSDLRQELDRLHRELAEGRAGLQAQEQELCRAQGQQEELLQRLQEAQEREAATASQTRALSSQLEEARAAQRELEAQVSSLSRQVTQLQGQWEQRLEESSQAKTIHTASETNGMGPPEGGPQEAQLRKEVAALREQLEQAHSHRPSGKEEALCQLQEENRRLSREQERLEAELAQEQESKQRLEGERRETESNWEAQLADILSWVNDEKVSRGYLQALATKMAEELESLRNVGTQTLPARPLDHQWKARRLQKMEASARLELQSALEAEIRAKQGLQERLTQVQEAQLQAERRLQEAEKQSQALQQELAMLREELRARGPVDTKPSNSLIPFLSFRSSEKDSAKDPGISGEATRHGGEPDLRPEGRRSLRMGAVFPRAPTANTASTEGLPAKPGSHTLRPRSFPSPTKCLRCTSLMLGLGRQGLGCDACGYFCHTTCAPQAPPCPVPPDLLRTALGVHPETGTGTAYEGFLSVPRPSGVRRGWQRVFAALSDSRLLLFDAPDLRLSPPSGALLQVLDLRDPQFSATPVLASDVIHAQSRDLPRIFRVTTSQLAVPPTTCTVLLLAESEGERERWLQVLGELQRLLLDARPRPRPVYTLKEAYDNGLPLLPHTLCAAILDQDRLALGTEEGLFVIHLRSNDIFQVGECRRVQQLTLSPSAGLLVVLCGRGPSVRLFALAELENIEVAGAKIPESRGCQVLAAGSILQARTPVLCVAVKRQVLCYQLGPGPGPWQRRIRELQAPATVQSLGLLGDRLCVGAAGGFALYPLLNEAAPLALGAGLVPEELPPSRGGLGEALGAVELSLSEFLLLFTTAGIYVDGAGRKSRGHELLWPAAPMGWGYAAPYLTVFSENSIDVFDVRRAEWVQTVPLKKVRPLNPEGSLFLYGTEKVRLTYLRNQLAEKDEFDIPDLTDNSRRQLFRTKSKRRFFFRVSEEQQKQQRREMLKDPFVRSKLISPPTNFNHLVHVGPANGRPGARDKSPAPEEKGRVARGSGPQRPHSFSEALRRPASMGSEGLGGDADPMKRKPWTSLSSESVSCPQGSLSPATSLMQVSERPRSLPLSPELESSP
Each entry below carries its reported remaining activity at 1 µM.
Supply the numeric figure in %, leaving out any unit text.

1. FC(F)c1nc2ccccc2n1-c1nc(N2CCOCC2)nc(N2CCOCC2)n1 :: 88
2. COc1ncc(-c2ccc3nccc(-c4ccnnc4)c3c2)cc1NS(=O)(=O)c1ccc(F)cc1F :: 100
3. Nc1cc(C(F)(F)F)c(-c2cc(N3CCOCC3)nc(N3CCOCC3)n2)cn1 :: 100

Missing value: remaining activity at 1 µM, panel of 442 kinases (Homo sapiens, UniProt Q6DT37), entry Cn1c(=O)n(-c2ccc(C(C)(C)C#N)cc2)c2c3cc(-c4cnc5ccccc5c4)ccc3ncc21 . Fill in?
81
